Below are compounds with their pIC50 as measured on Human autotaxin enzyme (Homo sapiens).
pIC50: −log10 of the molar value.

Quick check: pIC50 of CCCCC1CN(CC(=O)NCCCC#N)C(=O)c2cc(-c3ccc(Cl)cc3)nn21 (centres unmarked) [Compound I-0244] ?
6.00 to 7.00

Quick check: pIC50 of CC(=O)Nc1cc(Cl)ccc1-c1cc2n(n1)[C@@H](C)CN(Cc1ccc(C#N)cc1)C2=O [Compound I-0285] ?
> 8.00

Quick check: pIC50 of C[C@H]1CN(Cc2ccc(C(N)=O)cc2)C(=O)c2cc(-c3ccc(Cl)cc3)nn21 [Compound I-0169] ?
≤ 6.00

Quick check: pIC50 of CCCCCC1CN(CC(=O)N2CCCCC2)C(=O)c2cc(-c3ccc(Cl)cc3)nn21 (centres unmarked) [Compound I-0083] ?
6.00 to 7.00

Quick check: pIC50 of CCCCC1CN(CC(=O)OC)C(=O)c2cc(-c3ccc(Cl)cc3)nn21 (centres unmarked) [Compound I-0249] ?
7.00 to 8.00

Quick check: pIC50 of CCCCC1CN(CC(=O)N2CCC(C(=O)OC)CC2)C(=O)c2cc(-c3ccc(Cl)cc3)nn21 (centres unmarked) [Compound I-0279] ?
7.00 to 8.00

Quick check: pIC50 of CCCOCC1CN(CC(=O)OC(C)(C)C)C(=O)c2cc(-c3ccc(Cl)cc3)nn21 (centres unmarked) [Compound I-0250] ?
7.00 to 8.00

Quick check: pIC50 of CCCCC1CN(CC(=O)NCC(O)C(F)(F)F)C(=O)c2cc(-c3ccc(Cl)cc3)nn21 (centres unmarked) [Compound I-0216] ?
6.00 to 7.00
